- target: UniProt:P14902
- Sequence (P14902 whole entry): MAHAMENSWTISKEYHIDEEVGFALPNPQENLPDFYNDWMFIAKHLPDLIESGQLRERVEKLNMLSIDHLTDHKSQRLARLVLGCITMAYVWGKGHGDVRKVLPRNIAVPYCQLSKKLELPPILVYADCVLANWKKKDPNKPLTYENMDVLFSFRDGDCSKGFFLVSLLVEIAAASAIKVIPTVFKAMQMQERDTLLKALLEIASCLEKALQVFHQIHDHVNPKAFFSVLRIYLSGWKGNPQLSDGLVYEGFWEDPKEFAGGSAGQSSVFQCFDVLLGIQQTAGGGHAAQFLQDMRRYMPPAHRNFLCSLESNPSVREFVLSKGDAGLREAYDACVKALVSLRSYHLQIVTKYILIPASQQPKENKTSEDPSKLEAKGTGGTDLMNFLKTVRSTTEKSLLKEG
- test_summary: IDO1 Cellular Assay in HeLa Cells Stimulated with IFNγ
- Assay type: cell-based
- assay_context: read-out: HeLa Cell Potency, IC50
Mark label 1 only for IC50 values smaller than 80 nM; exact matches and larger values are label 0.

[[record]]
molecule = "Cc1cccc(N2CCN(C(=O)Cn3nc(C(=O)N4CC[C@H](O)[C@@H](F)C4)c4c3C(O)CC4)CC2)c1C (some centres unmarked)"
target = "UniProt:P14902"
category_label = "label 0"

[[record]]
molecule = "Cc1cccc(N2CCN(C(=O)Cn3nc(C(=O)N4CCC(OCCO)CC4)c4c3C[C@H]3C[C@@H]43)CC2)c1C"
target = "UniProt:P14902"
category_label = "label 1"

[[record]]
molecule = "Cc1cccc(N2CCN(C(=O)Cn3nc(C(=O)N4CCC5(CCCN5)CC4)c4c3CCC4)CC2)c1C"
target = "UniProt:P14902"
category_label = "label 0"

[[record]]
molecule = "Cc1cccc(N2CCN(C(=O)Cn3nc(C(=O)N4CC[C@@H](O)[C@@H](F)C4)c4c3C[C@@H]3C[C@H]43)CC2)c1C"
target = "UniProt:P14902"
category_label = "label 1"

[[record]]
molecule = "C[C@@H]1CN(C(=O)c2nn(CC(=O)N3CCN(c4cccc5c4cnn5C)CC3)c3c2CCC3)C[C@H](C)O1"
target = "UniProt:P14902"
category_label = "label 0"

[[record]]
molecule = "O=C(Cn1nc(C(=O)N2CC[C@H](O)[C@H](F)C2)c2c1CCC2)N1CCN(C2CCCc3ccccc32)CC1 (some centres unmarked) [Example 425]"
target = "UniProt:P14902"
category_label = "label 0"

[[record]]
molecule = "Cc1cccc(N2CCN(C(=O)Cn3nc(C(=O)N4CC[C@@H](O)[C@@H](F)C4)c4c3CC(F)C4)CC2)c1C (single isomer, unassigned) [Example 419]"
target = "UniProt:P14902"
category_label = "label 1"

[[record]]
molecule = "Cc1cccc(N2CCN(C(=O)Cn3nc(C(=O)N4CC[C@H](O)[C@@H](C)C4)c4c3CCC4)CC2)c1C [Example 94]"
target = "UniProt:P14902"
category_label = "label 1"

[[record]]
molecule = "Cc1cccc(N2CCN(C(=O)Cn3nc(C(=O)N4CCC5NCC5C4)c4c3C[C@H]3C[C@@H]43)CC2)c1C (some centres unmarked)"
target = "UniProt:P14902"
category_label = "label 1"

[[record]]
molecule = "Cc1cccc(N2CCN(C(=O)Cn3nc(C(=O)N4CCN(C(=O)[C@@H](C)O)CC4)c4c3CCC4)CC2)c1C"
target = "UniProt:P14902"
category_label = "label 1"

[[record]]
molecule = "Cc1cccc(N2CCN(C(=O)Cn3nc(C(=O)N4CC[C@H](O)[C@H](F)C4)c4c3C(F)(F)CCC4)CC2)c1C"
target = "UniProt:P14902"
category_label = "label 0"

[[record]]
molecule = "Cc1cccc(N2CCN(C(=O)Cn3nc(C(=O)N4[C@@H](C)COC[C@@H]4C)c4c3CCC4)CC2)c1C"
target = "UniProt:P14902"
category_label = "label 0"

[[record]]
molecule = "Cc1cccc(N2CCN(C(=O)Cn3nc(C(=O)N4CCN(CC(F)F)CC4)c4c3CCC4)CC2)c1C"
target = "UniProt:P14902"
category_label = "label 1"


Data credit: patent US12264134B2
